- Tested on: S. aureus 870307
- measurement_protocol: Antibacterial activity (MIC), standard method of the Japanese Society of Chemotherapy
- Type: cell-based
- details: Staphylococcus aureus; S. aureus 870307; read-out: MIC
Parameter MIC: see the listing below.
assay_endpoint: MIC (µg/mL)

INSERT INTO results (molecule, tested_system, comparator, value_observed) VALUES
  ('N#Cc1c(N2CC[C@@H](C3(N)CC3)C2)ccc2c(=O)c(C(=O)O)cn([C@@H]3C[C@@H]3F)c12 [Control drug 1, reference compound]', 'S. aureus 870307', '=', 0.39),
  ('O=C(O)c1cn(C2CC2)c2cc(N3CCNCC3)c(F)cc2c1=O [CPFX, ciprofloxacin, reference compound]', 'S. aureus 870307', '>', 6.25),
  ('C[C@H]1COc2c(N3CCN(C)CC3)c(F)cc3c(=O)c(C(=O)O)cn1c23 [LVFX, levofloxacin, reference compound]', 'S. aureus 870307', '>', 6.25),
  ('N#Cc1c(N2CC[C@@H](C3(N)CC3)C2)c(F)cc2c(=O)c(C(=O)O)cn([C@@H]3C[C@@H]3F)c12', 'S. aureus 870307', '=', 0.05),
  ('N#Cc1c(N2CC[C@@H](C3(N)CC3)C2)c(F)cc2c(=O)c(C(=O)O)cn(C3CC3)c12', 'S. aureus 870307', '=', 0.05);
